This section presents binders with their documented Neutralizing activity (%) at 250 µg/ml values.
# system under test: Influenza virus A/Panama/2007/1999 (H3N2) (Influenza A virus A/Panama/2007/1999 (H3N2))
# procedure details: cell-based or functional assay
result type: Neutralizing activity (%) at 250 µg/ml

binder	number
Group 35 representative clone F082-117, Fab-PP-type antibody (Fab, V domains shown) VH: QVQLVQSGSEVKKPGSSVKVSCKSSGGILRRSAISWVRQAPGQGLEWMGGILAIFGTTKYAQKFQGRITITADESTNTVHMELSSLRPDDTAVYYCAGGPHYYVSYFDSWGQGTLVTVSS VL: DIQMTQSPATLSLSPGERATLSCRASQSVRSYLAWYQQKPGQAPRLLIYDASNRATGIPARFSGSGSGTEFTLTISRLEPEDFAVYYCQQRSNWLFTFGPGTKVDFK	-4.8
Group 56 representative clone F083-318, Fab-PP-type antibody (Fab, V domains shown) VH: EVQLVQSGAEVKKPGSSVKVSCQASGSIFSNYAINWVRQAPGQGLEWMGGIVPIFGTTRFAQKFQGRLTITADEPRSTAYMELNNLISEDTAVYYCARAPLIYNWYYDLWGRGTLVTVSS VL: EIVLTQSPSSLSASVGDRVTITCRASQGISNYLAWYQQKPGKVPKLLIYAASTLQSGVPSRFSGSGSGTDFTLTISSLQPEDVATYYCQKYNSAPHTFGPGTKVDIK	7.5
Group 38 representative clone F082-338, Fab-PP-type antibody (Fab, V domains shown) VH: QVQLQESGAEVKKPGSSVKVSCKASGGPFRSHAISWVRQAAGQGLEWMGGITAVFGTANYAQKFQGRVTITADESTNIVSMELSSLRSEDTAIYYCARSLGYHTQYNGMDVWGQGTTVTVSS VL: DVVMTQSPSSVSASVGDRVTITCRASQGISSWLAWYQQKPGKAPKLLIYAASSLQSGVPSRFSGSGSGTDFTLTISSLQPEDFATYYCQQANSFPITFGQGTRLEIK	-0.7
Group 57 representative clone F083-103, Fab-PP-type antibody (Fab, V domains shown) VH: QVQLQQSGADVKKAGSSVKVSCKASGRTFGNYAISWVRQAPGQGLEWMGGITPIFGAANYAQKFQGRVTISADLSTRMVYMDLSSLRSDDTAFYYCAGHPTYHYGSAMDYWGQGTLVTVSS VL: QSVLTQPPSVSAAPGQKVTITCSGSSSNIGNNYVSWYQQLPGTAPKLLISEGSNRPSGIPDRFSGSKSGTSATLGITGLQTGDEATYYCATWDDSLSVVLFGGGTRLTVLS	13.7
Group 63 representative clone F083-336, Fab-PP-type antibody (Fab, V domains shown) VH: QVQLQQSGAEVKQPGSSVKVSCKASGGIFRSNAISWVRQAPGQGLEWMGGIVALFGTANYAQKFQGRVTITADESTSTVYMELSSLRSEDTARYYCARNSGYHISGFYLDYWGQGTLVTVSS VL: EIVLTQSPSSLSASVGDRVTITCRASQGISNYLAWYQQRPGKVPKLLIYTASTLLSGVPSRFSGGGSGTDYTLTISSLQPEDVATYYCQEYKSVPLTFGPGTKVEIK	-8.9
Group 43 representative clone F081-007, Fab-PP-type antibody (Fab, V domains shown) VH: QVQLQQSGAEVKKPGSSVKVSCKASGGIFRKNAISWVRQAPGQGLEWMGGISAIFGTANYAQKFQGRVTITADESSNTVYMDLSRLRSEDTAIYYCASHPTYHFDKSGYRFDSWGQGTLVTVSS VL: QSVLTQPPSVSAAPGQKVTISCSGSSSNIGNNYVSWYQQLPGTAPKLLIYDNNKRPSGIPDRFSGSKSGTSATLGITGLQTGDEADYYCGTWDSSLSAGVFGGGTKLTVLG	13.7
Group 36 representative clone F082-243, Fab-PP-type antibody (Fab, V domains shown) VH: QVQLQQSGAEVKKPGSSVKVSCKASGGIFRKNAISWVRQAPGQGLEWMGGIIAIFGTANYAQKFQGRVTITADDSTNTVYMELTSLRYEDTAVYYCARGPNYYENYFDFWGQGTLVTVSS VL: EIVLTQSPSSLSASLRDTVTITCRTSQAITNYLAWYQQRPGKAPKLLIYAASVLQSGVPSRFSGSGSGTDFTLTISSLQPEDFATYYCQKYDSAPYTFGQGTKLEIK	-2.7
Group 62 representative clone F083-349, Fab-PP-type antibody (Fab, V domains shown) VH: QVQLVQSGAEVRKPGSSVKVSCKASGVIFIKFAISWVRQAPGQGLEWMGGIIPMFGTTNYAQKFQGRVTITADGSTNTVYMELSSLTSEDTAVYYCAKEEGYYYGSGPLDSWGQGTLVTVSS VL: DIVMTQSPDFLSVSLGERVTINCKSSQTVLNRSNNKNYLAWYQKKPGQPPRLLLYWSSTRESGVPDRFSGSGSETDFALTITNLQAEDLAVYFCQQFYDMPVTFGGGTKLEIK	-8.9
Group 37 representative clone F083-311, Fab-PP-type antibody (Fab, V domains shown) VH: QVQLVQSGSEVKKPGSSVKVSCKASGGIFRTNAISYVRQAPGQGLEWMGGITAIFGTPNYAQKFQGRVTIIADESTSTVYMELGSLTSEDTAVYYCATSGTYYVSYFDSWGQGTLVTVSS VL: DIVMTQSPGTLTLSPGERATLSCRASQSLYSSHLAWYQQKPGQPPRLLIYGASTRAPGTPDRFSGSGSGTDFTLTITALDPEDSAVYYCQQYGSSPITFGQGTRLEIK	5.5
